assay: Single ascending dose study in healthy subjects, pharmacokinetics of compound of Formula I; format: in vivo, human; conditions: human, plasma, mean, single oral dose 5 mg, 1 h
MEASURE: concentration at 1 h (ng/mL)
Quick reminder: number only, in ng/mL, skip the unit.

Input line: Which concentration at 1 h value belongs to `CC(=O)Nc1nc(F)c(CN2CC[C@H](OCc3noc(C)n3)C[C@@H]2C)s1` ?
Output line: 58.9

====

assay: Plasma concentration of compound of Formula I in the PET occupancy study; format: in vivo; conditions: human, single oral dose 1 mg, approx. 30 h, healthy subjects
MEASURE: concentration at 30 h (ng/mL)
Quick reminder: number only, in ng/mL, skip the unit.

Input line: Which concentration at 30 h value belongs to CC(=O)Nc1nc(F)c(CN2CC[C@H](OCc3noc(C)n3)C[C@@H]2C)s1 [compound of Formula I] ?
Output line: 0.222

====

assay: Plasma concentration of compound of Formula I in the PET occupancy study; assay type: in vivo; details: human, single oral dose 0.25 mg, approx. 24 h, healthy subjects
MEASURE: concentration at 24 h (ng/mL)
Quick reminder: number only, in ng/mL, skip the unit.

Input line: Which concentration at 24 h value belongs to `CC(=O)Nc1nc(F)c(CN2CC[C@H](OCc3noc(C)n3)C[C@@H]2C)s1` ?
Output line: 0.107

====

test: Single ascending dose study in healthy subjects, pharmacokinetics of compound of Formula I; type: in vivo, human; conditions: human, plasma, single oral dose 5 mg, geometric mean (% CV), read-out: Vz/F (apparent volume of distribution after oral administration)
MEASURE: Vd/F

Input line: Which Vd/F value belongs to `CC(=O)Nc1nc(F)c(CN2CC[C@H](OCc3noc(C)n3)C[C@@H]2C)s1` ?
Output line: 114 L

====

assay: Single ascending dose study in healthy subjects, pharmacokinetics of compound of Formula I; assay type: in vivo, human; conditions: human, plasma, mean, single oral dose 16 mg, 12 h
MEASURE: concentration at 12 h

Input line: Which concentration at 12 h value belongs to CC(=O)Nc1nc(F)c(CN2CC[C@H](OCc3noc(C)n3)C[C@@H]2C)s1 [compound of Formula I] ?
Output line: 32.2 ng/mL

====

test: Single ascending dose study in healthy subjects, pharmacokinetics of compound of Formula I; type: in vivo, human; details: human, plasma, single oral dose 16 mg, geometric mean (% CV), read-out: Vz/F (apparent volume of distribution after oral administration)
MEASURE: Vd/F (L)
Quick reminder: number only, in L, skip the unit.

Input line: Which Vd/F value belongs to `CC(=O)Nc1nc(F)c(CN2CC[C@H](OCc3noc(C)n3)C[C@@H]2C)s1` ?
Output line: 102

====

assay: Single ascending dose study in healthy subjects, pharmacokinetics of compound of Formula I; format: in vivo, human; settings: human, plasma, mean, single oral dose 0.6 mg, 5 h
MEASURE: concentration at 5 h (ng/mL)
Quick reminder: number only, in ng/mL, skip the unit.

Input line: Which concentration at 5 h value belongs to CC(=O)Nc1nc(F)c(CN2CC[C@H](OCc3noc(C)n3)C[C@@H]2C)s1 [compound of Formula I] ?
Output line: 3.02

====

test: Single ascending dose study in healthy subjects, pharmacokinetics of compound of Formula I; type: in vivo, human; conditions: human, plasma, single oral dose 5 mg, geometric mean (% CV)
MEASURE: Cmax (µg/mL)
Quick reminder: number only, in µg/mL, skip the unit.

Input line: Which Cmax value belongs to `CC(=O)Nc1nc(F)c(CN2CC[C@H](OCc3noc(C)n3)C[C@@H]2C)s1` ?
Output line: 0.0591

====

assay: Single ascending dose study in healthy subjects, pharmacokinetics of compound of Formula I; type: in vivo, human; settings: human, plasma, mean, single oral dose 0.15 mg, 3 h
MEASURE: concentration at 3 h (ng/mL)
Quick reminder: number only, in ng/mL, skip the unit.

Input line: Which concentration at 3 h value belongs to `CC(=O)Nc1nc(F)c(CN2CC[C@H](OCc3noc(C)n3)C[C@@H]2C)s1` ?
Output line: 0.161

====

test: Single ascending dose study in healthy subjects, pharmacokinetics of compound of Formula I; type: in vivo, human; details: human, plasma, mean, single oral dose 0.6 mg, 8 h
MEASURE: concentration at 8 h (ng/mL)
Quick reminder: number only, in ng/mL, skip the unit.

Input line: Which concentration at 8 h value belongs to `CC(=O)Nc1nc(F)c(CN2CC[C@H](OCc3noc(C)n3)C[C@@H]2C)s1` ?
Output line: 2.1

====

assay: Single ascending dose study in healthy subjects, pharmacokinetics of compound of Formula I; type: in vivo, human; conditions: human, plasma, oral, summary over the single ascending doses, read-out: median tmax
MEASURE: Tmax

Input line: Which Tmax value belongs to `CC(=O)Nc1nc(F)c(CN2CC[C@H](OCc3noc(C)n3)C[C@@H]2C)s1` ?
Output line: ~1 h

====

assay: Single ascending dose study in healthy subjects, pharmacokinetics of compound of Formula I; assay type: in vivo, human; conditions: human, plasma, mean, single oral dose 5 mg, 8 h
MEASURE: concentration at 8 h (ng/mL)
Quick reminder: number only, in ng/mL, skip the unit.

Input line: Which concentration at 8 h value belongs to CC(=O)Nc1nc(F)c(CN2CC[C@H](OCc3noc(C)n3)C[C@@H]2C)s1 [compound of Formula I] ?
Output line: 18.4

====

experiment: Single ascending dose study in healthy subjects, pharmacokinetics of compound of Formula I; type: in vivo, human; conditions: human, plasma, mean, single oral dose 2 mg, 8 h
MEASURE: concentration at 8 h (ng/mL)
Quick reminder: number only, in ng/mL, skip the unit.

Input line: Which concentration at 8 h value belongs to CC(=O)Nc1nc(F)c(CN2CC[C@H](OCc3noc(C)n3)C[C@@H]2C)s1 [compound of Formula I] ?
Output line: 7.09

====

Assay: Single ascending dose study in healthy subjects, pharmacokinetics of compound of Formula I
Assay type: in vivo, human
Settings: human, plasma, mean, single oral dose 10 mg, 1.5 h
Protocol: A Phase 1, single-center, subject- and investigator-blind, single-ascending dose, placebo-controlled, crossover, randomized study is performed to evaluate safety, tolerability, and pharmacokinetics (PK) of the compound of Formula I in healthy subjects. The study is conducted in 2 alternating cohorts (cohorts 1 and 2) in up to 3 study periods across 6 dose levels. […]
MEASURE: concentration at 1.5 h
Quick note: unit goes after the number.

Input line: Which concentration at 1.5 h value belongs to `CC(=O)Nc1nc(F)c(CN2CC[C@H](OCc3noc(C)n3)C[C@@H]2C)s1` ?
Output line: 127 ng/mL

====

test: Single ascending dose study in healthy subjects, pharmacokinetics of compound of Formula I; type: in vivo, human; conditions: human, plasma, single oral dose 16 mg, geometric mean, read-out: t1/2 (terminal half-life) (converted)
MEASURE: half-life
Quick note: unit goes after the number.

Input line: Which half-life value belongs to `CC(=O)Nc1nc(F)c(CN2CC[C@H](OCc3noc(C)n3)C[C@@H]2C)s1` ?
Output line: 5.92 h

====

test: Single ascending dose study in healthy subjects, pharmacokinetics of compound of Formula I; assay type: in vivo, human; conditions: human, plasma, mean, single oral dose 2 mg, 5 h
MEASURE: concentration at 5 h
Quick note: unit goes after the number.

Input line: Which concentration at 5 h value belongs to `CC(=O)Nc1nc(F)c(CN2CC[C@H](OCc3noc(C)n3)C[C@@H]2C)s1` ?
Output line: 10.5 ng/mL

====

assay: Single ascending dose study in healthy subjects, pharmacokinetics of compound of Formula I; format: in vivo, human; conditions: human, plasma, mean, single oral dose 10 mg, 12 h
MEASURE: concentration at 12 h (ng/mL)
Quick reminder: number only, in ng/mL, skip the unit.

Input line: Which concentration at 12 h value belongs to CC(=O)Nc1nc(F)c(CN2CC[C@H](OCc3noc(C)n3)C[C@@H]2C)s1 [compound of Formula I] ?
Output line: 32.7

====

experiment: Single ascending dose study in healthy subjects, pharmacokinetics of compound of Formula I; assay type: in vivo, human; conditions: human, plasma, mean, single oral dose 5 mg, 6 h
MEASURE: concentration at 6 h (µg/mL)
Quick reminder: number only, in µg/mL, skip the unit.

Input line: Which concentration at 6 h value belongs to CC(=O)Nc1nc(F)c(CN2CC[C@H](OCc3noc(C)n3)C[C@@H]2C)s1 [compound of Formula I] ?
Output line: 0.0248

====

Assay: Single ascending dose study in healthy subjects, pharmacokinetics of compound of Formula I
Type: in vivo, human
Conditions: human, plasma, mean, single oral dose 5 mg, 48 h
Protocol: A Phase 1, single-center, subject- and investigator-blind, single-ascending dose, placebo-controlled, crossover, randomized study is performed to evaluate safety, tolerability, and pharmacokinetics (PK) of the compound of Formula I in healthy subjects. The study is conducted in 2 alternating cohorts (cohorts 1 and 2) in up to 3 study periods across 6 dose levels. […]
MEASURE: concentration at 48 h

Input line: Which concentration at 48 h value belongs to CC(=O)Nc1nc(F)c(CN2CC[C@H](OCc3noc(C)n3)C[C@@H]2C)s1 [compound of Formula I] ?
Output line: 0.634 ng/mL
